Numbers sourced from patent US5075308A.

Kb values by entry
Target: α1-adrenoceptor (trigonum vesicae) (Oryctolagus cuniculus, UniProt O02824)
Construct: longitudinal strips (3×15 mm in size) of trigonum vesicae; from tissue; host or cells: rabbit urinary bladder, longitudinal strips of trigonum vesicae
Sequence (O02824 whole entry): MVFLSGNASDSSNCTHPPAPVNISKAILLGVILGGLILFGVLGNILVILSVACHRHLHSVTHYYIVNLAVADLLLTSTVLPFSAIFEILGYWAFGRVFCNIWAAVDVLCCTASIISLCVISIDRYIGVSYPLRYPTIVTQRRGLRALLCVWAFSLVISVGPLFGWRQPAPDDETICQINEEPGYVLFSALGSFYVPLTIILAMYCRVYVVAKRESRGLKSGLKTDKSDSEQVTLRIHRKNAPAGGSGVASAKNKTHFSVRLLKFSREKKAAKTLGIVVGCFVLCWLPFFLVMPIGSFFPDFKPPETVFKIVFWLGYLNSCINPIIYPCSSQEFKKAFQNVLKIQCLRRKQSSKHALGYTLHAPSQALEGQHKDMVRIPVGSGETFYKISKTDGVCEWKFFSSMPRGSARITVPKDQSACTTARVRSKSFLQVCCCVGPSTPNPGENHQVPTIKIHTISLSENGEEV
Experiment: α1-adrenoceptor-blocking activity in rabbit trigonum vesicae strips (noradrenaline contraction, Schild plot)
Details: rabbit trigonum vesicae longitudinal strips; antagonism of noradrenaline contraction; mean (± standard deviation); read-out: pA2, trigonum vesicae (converted)
RECORDED ENDPOINT: Kb

# MOL, RESULT
rows = [
    ("COc1ccnc(NCCCCN2CCN(c3ccccc3OC)CC2)n1", "6.17 nM"),
    ("CCOC(=O)c1c(C)nc(NCCN2CCN(c3ccccc3OC)CC2)nc1C", "5.5 nM"),
    ("COc1ccccc1N1CCN(CCNc2nccc(Cl)n2)CC1", "5.25 nM"),
    ("COc1ccnc(NCCN2CCN(c3ccccc3OC)CC2)n1", "6.46 nM"),
    ("COc1ccccc1N1CCN(CCNc2nc(C)cc(C)n2)CC1", "7.08 nM"),
    ("CCOC(=O)c1c(C)nc(NCCCN2CCN(c3ccccc3OC)CC2)nc1C", "5.25 nM"),
    ("CCOC(=O)c1c(C)nc(NCCCCN2CCN(c3ccccc3OC)CC2)nc1C", "5.01 nM"),
    ("COc1ccccc1N1CCN(CCNc2nc(C)c(C(C)=O)c(C)n2)CC1", "8.51 nM"),
    ("COc1ccccc1N1CCN(CCNc2ncccn2)CC1", "7.94 nM"),
]
